# Species: Rattus norvegicus
# Test protocol: Open TG-GATES - Regimen: Daily Repeat
# Format: toxicity, organism-based, Sprague-Dawley
# Design: regimen Daily Repeat, gender Male, age 6 weeks
# Run parameters: in vivo, po, 0 mg/kg, […], tissue Blood, route gavage, dose level Control, time 7 day
Overview of reported Eos across a group of molecules:
Endpoint label: Eos (%)

* COc1ccc(Cc2nccc3cc(OC)c(OC)cc23)cc1OC [PAPAVERINE] | 0.8
* COc1ccc2c(c1)c(CC(=O)O)c(C)n2C(=O)c1ccc(Cl)cc1 [INDOMETHACIN] | 1
* CCCC(CCC)C(=O)O [VALPROIC ACID] | 1
* O=C(O)c1cn(C2CC2)c2cc(N3CCNCC3)c(F)cc2c1=O [CIPROFLOXACIN] | 0.8
* CCc1cc(C(N)=S)ccn1 [ETHIONAMIDE] | 1
* CC(=O)Oc1ccccc1C(=O)O [ASPIRIN] | 1
* CSc1ccc2c(c1)N(CCC1CCCCN1C)c1ccccc1S2 (stereo not given) [THIORIDAZINE] | 0.6
* Clc1ccccc1CN1CCc2sccc2C1 [TICLOPIDINE] | 1
* O=C(O)c1cc(/N=N/c2ccc(S(=O)(=O)Nc3ccccn3)cc2)ccc1O [SULFASALAZINE] | 1
* Cn1c(=O)c2[nH]cnc2n(C)c1=O.O [THEOPHYLLINE] | 1

----------
# Species: Rattus norvegicus
# Test protocol: Open TG-GATES - Regimen: Daily Repeat
# Format: toxicity, organism-based, Sprague-Dawley
# Set-up: regimen Daily Repeat, gender Male, age 6 weeks
# Run parameters: in vivo, po, 0 mg/kg, […], tissue Blood, route gavage, dose level Control, time 7 day
With a cut-off of 40%, any Ht strictly below it is called met; any Ht meeting it or above is called not met.

• COc1ccc2c(c1)c(CC(=O)O)c(C)n2C(=O)c1ccc(Cl)cc1 = not met
• CCc1cc(C(N)=S)ccn1 [ETHIONAMIDE] = not met
• Clc1ccccc1CN1CCc2sccc2C1 = met

----------
# Species on record: Rattus norvegicus
# Test protocol: Open TG-GATES - Regimen: Daily Repeat
# Assay type: toxicity, organism-based, Sprague-Dawley
# Parameters: regimen Daily Repeat, gender Male, age 6 weeks
# Run parameters: in vivo, po, 0 mg/kg, […], tissue Plasma, route gavage, dose level Control, time 7 day
Overview of reported PL across a group of molecules:
Endpoint label: PL (mg/dL)

* CC(=O)Oc1ccccc1C(=O)O | 137.4
* CO[C@H]1/C=C/O[C@@]2(C)Oc3c(C)c(O)c4c(O)c(c(/C=N/N5CCN(C)CC5)c(O)c4c3C2=O)NC(=O)/C(C)=C\C=C\[C@H](C)[C@H](O)[C@@H](C)[C@@H](O)[C@@H](C)[C@H](OC(C)=O)[C@@H]1C | 150
* Cn1c(=O)c2[nH]cnc2n(C)c1=O.O | 145.2
* COc1ccc2c(c1)c(CC(=O)O)c(C)n2C(=O)c1ccc(Cl)cc1 | 144.8
* CN(C)CCC=C1c2ccccc2CCc2ccccc21 | 165.8
* O=C(O)c1cc(/N=N/c2ccc(S(=O)(=O)Nc3ccccn3)cc2)ccc1O | 160.4
* NC(=O)N1c2ccccc2C=Cc2ccccc21 [CARBAMAZEPINE] | 158.6
* CSc1ccc2c(c1)N(CCC1CCCCN1C)c1ccccc1S2 (stereo not drawn) | 175
